Reference source: PubChem BioAssay (NCI)

# Test system: KM12 colon
# testDetails: NCI-60 one-dose screen, 48 h (100 = growth as untreated, 0 = no growth, -100 = all killed)
# experimentalConditions: 10 µM unless noted
About 83,000 compounds went through this panel and 20% of them were active in at least one assay; those are over-represented in the sample as a whole.
So I've got a bunch of compounds here, and I need their growth values.
Answers are plain numbers, in %.

> print(dat)
                                   compound  measure  measured
1           CCOC(=O)/C(C#N)=C(\C)CCc1ccccc1   growth       113
2  COc1ccc2nc3c(cc2c1)C(=O)CC(C(F)(F)F)C3 (stereo unspecified)   growth      11.6
3                       C=C(CC(=O)OC)C(C)=O   growth       102
4         O=c1cc(-c2ccccc2)oc2c(O)c(O)ccc12   growth      65.3
5  O=[N+]([O-])c1cccc(/C=C/c2ccc3ccccc3n2)c1   growth      82.7

For the next question, use this compound.
Data request: What value of growth has been reported for the following compound? O=C(N/N=C1\c2ccccc2-c2cccc(C(=O)O)c21)c1ccc(O)cc1
Data returned: 105

* * *

# Tested on: ACHN renal
# testDetails: NCI-60 one-dose screen, 48 h
# experimentalConditions: 10 µM unless noted
# Procedure: Growth inhibition of the ACHN human tumor cell line is measured as a screen for anti-cancer activity. Cells are grown in 96 well plates and exposed to the test compound for 48 hours. Compounds are tested at a single concentration, which is 10^-5 M for most compounds. The reported endpoint is percent growth (GI% or GIPRCNT), where numbers from 0 - 100% represent growth inhibition, and numbers from -100% - 0 represent cell death. For example, a value of 40 represents 60% growth inhibition. […]
The panel holds about 83,000 compounds, 20% with a hit somewhere; the sample as a whole holds those more often. Active and inactive are the calls of the source. The calls were made as follows: active = growth percent below 10; inactive = the rest.
Hello, when you answer, please use one of the following outcomes: active, inactive

Worked set:
compound	assignedCategory
NC(=O)CC1C=CCC1 (centres undefined)	inactive
C=C(C)[C@@H]1CC[C@]2(C(=O)NCCCCCCN(CCCN)CCCN)CC[C@]3(C)[C@H](CC[C@@H]4[C@@]5(C)CC[C@H](OCCCN)C(C)(C)[C@@H]5CC[C@]43C)[C@@H]12	inactive

Data request: Look up the recorded call for CCCCCCCCCCCCCC[n+]1cccc(C(N)=O)c1 in this test.
Data returned: inactive

Data request: Recorded test outcome, item CC(C)c1ccc(C(=O)Nc2sc3c(c2C#N)CCC(=O)C3)cc1
Data returned: active

Data request: Please state the recorded outcome for this compound: CSc1nc(=S)c2nc(SC)n(-c3ccccc3)c2[nH]1
Data returned: inactive

Data request: Tell me the recorded outcome of this test for C=C(C)[C@@H]1CC[C@]2(C(N)=O)CC[C@]3(C)[C@H](CC[C@@H]4[C@@]5(C)CC[C@H](O)C(C)(C)[C@@H]5CC[C@]43C)[C@@H]12 .
Data returned: active

Data request: Lab log entry: O=C(OCc1ccc2c(Cl)cc(Cl)c(O)c2n1)N1CCN(C(=O)c2cc3cc(F)ccc3[nH]2)CC1 — outcome as called in the assay?
Data returned: inactive

Data request: Answer briefly: the call reported for COC(=O)C(=Cc1ccccc1[N+](=O)[O-])C(=O)OC in this assay.
Data returned: inactive

Data request: Dear all, I need the recorded test outcome for COc1ccc(C=C2c3ccccc3-c3ccccc32)cc1 , thank you.
Data returned: inactive

* * *

# Tested on: HOP-92 NSCLC
# testDetails: NCI-60 one-dose screen, 48 h (100 = growth as untreated, 0 = no growth, -100 = all killed)
# experimentalConditions: 10 µM unless noted
The panel holds about 83,000 compounds, 20% with a hit somewhere; the sample as a whole holds those more often.
measure: growth (%)
Give bare numbers, in %.

Example results:
> print(dat)
                                    compound  measure  measured
 1  c1cc2ccc3cc2cc1CNCCN1CCNCc2ccc4ccc(cc4c2)CNCCN(CCNC3)CCNCc2ccc3ccc(cc3c2)CNCC1   growth     -17.9
 2  COc1ccc(/C=C/C=C\C(=O)c2ccc(-n3ccnc3)cc2)cc1   growth      96.5
 3  Cc1ccc(-c2cc(O)c(-c3ccc(C)cc3C)cc2O)c(C)c1   growth      67.7
 4          CCN(CC)CCCCCCNc1cccc2cc(Br)cnc12   growth      71.6
 5  CCN1c2ccccc2C(Cl)(c2ccc(N(C)C)cc2)c2ccccc21   growth      59.6
 6                   CCCCCCSc1ncnc2nc[nH]c12   growth      68.3
 7  Cc1ccc(-c2cn(C/C=C3\C=CN(S(=O)(=O)c4ccccc4)CC3)nn2)cc1   growth      92.7
 8  O=C(Nc1ccc(Oc2ccc(F)cc2)c(Cl)c1)c1cnccn1   growth      58.2
 9  CCCn1ccnc1C(O)c1ccc(OCc2ccccc2)c(OC)c1 (stereo unspecified)   growth      68.1
10  O=c1[nH]cnc2c1ccn2C1OC(CO)C(O)C1O (stereo unspecified)   growth      8.49

Now for the compound whose growth we want.
Data request: Please look up its growth: CC(=O)O.CC(=O)O.O.[Fe]
Data returned: 99.8

* * *

# System: K-562 leukemia
# testDetails: NCI-60 one-dose screen, 48 h
# experimentalConditions: 10 µM unless noted
The panel holds about 83,000 compounds, 20% with a hit somewhere; the sample as a whole holds those more often. Calls of active or inactive are those of the source. How the source made its calls: active means growth percent below 10; inactive means the rest.
Form entry, call: pick from true (1) = active, false (0) = inactive

> print(dat)
                                   compound      systemname  assignedcategory
1  Nc1cccc2c1C(=O)c1cccc(NC(=O)c3ccccc3)c1C2=O  K-562 leukemia         false (0)

Please find the next compound below.
Data request: What did this assay record as the result for CC(C)(C)c1cc(C(=O)Nc2ccc(C(=O)NCCN)cc2)cc(C(C)(C)C)c1 ?
Data returned: true (1)

* * *

# Tested on: CCRF-CEM leukemia
# testDetails: NCI-60 one-dose screen, 48 h
# experimentalConditions: 10 µM unless noted
Compounds without any hit were thinned out: in the full panel of roughly 83,000, 20% have a hit. Activity calls are given as the source filed them. Rule for the calls: active = growth percent below 10; inactive = the rest.
The categories you may choose from are True for active, False for inactive

# example entries with known answers
molecule	assignedCategory
C=C(CC(=O)OC)C(C)=O	False
O=[N+]([O-])c1cc([N+](=O)[O-])c(NN=C(c2ccc(O)cc2)c2ccc(O)cc2)cc1Cl	False
COc1cc(C)cc2oc3oc(=N)c(C(=O)c4ccccc4)cc3c(=O)c12	False
O=c1[nH]c(CN2CCN(c3cccc(Cl)c3)CC2)nc2cc(Cl)ccc12	False
O=C(CCNCc1ccccc1)c1ccccc1	False
COc1cc(-c2cc(-c3ccc(Nc4ncnc5cc(Cl)ccc45)cc3)nc(N3CCCCC3)n2)cc(OC)c1OC	False
COC(=O)[C@]1(C)CC[C@]2(C)CC[C@]3(C)C(=CC(=O)[C@@H]4[C@@]5(C)CCC(=O)NC(C)(C)[C@@H]5CC[C@]43C)[C@@H]2C1	True
CCCn1ccnc1C(O)c1ccc(OCc2ccccc2)c(OC)c1 (configuration not stated)	False
C#CCC(C(=O)OCC)C(=O)OCC	False
O=c1[nH]cnc2c1ccn2C1OC(CO)C(O)C1O (configuration not stated)	False

Data request: Entry O=C(NCc1ccc(Cn2c(=O)sn(-c3ccccc3)c2=O)cc1)OCc1ccc2c(Br)cc(Br)c(O)c2n1 : call = ?
Data returned: True

Data request: Just curious, what result did O=C(O)c1cccc(CN2CCN(c3cc4c(cc3F)c(=O)c(C(=O)O)cn4C3CC3)CC2)c1O get here?
Data returned: False

* * *

# Test system: HOP-62 NSCLC
# testDetails: NCI-60 one-dose screen, 48 h
# experimentalConditions: 10 µM unless noted
Compounds without any hit were thinned out: in the full panel of roughly 83,000, 20% have a hit. Calls of active or inactive are those of the source. Rule for the calls: active = growth percent below 10; inactive = the rest.
Allowed answers: active, inactive

Here are 6 compounds together with their reported answers.
compound	assignedCategory
Cc1cc(C)nc(SCC(=O)Nc2cccc(N=Cc3ccccc3O)c2)n1	inactive
COc1ccc(/C=C(/C2=NCCN2)n2ccc3ccccc32)cc1	inactive
CCN(CC)c1ccc2cc(NC(=O)OCCNC(=O)CCNC(=O)[C@H](CC(C)C)NC(=O)C(C)(C)NC(=O)C(C)(C)NC(=O)[C@H](CC(C)C)NC(=O)CCNC(=O)C(C)(C)NC(=O)[C@H](CC(C)C)NC(=O)CCNC(=O)[C@@](C)(CC)NC(=O)[C@H](C)NC(=O)CCNC(=O)C(C)(C)NC(=O)[C@H](C)NC(=O)[C@@H]3CCCN3C(=O)[C@@](C)(CC)NC(=O)[C@H](Cc3ccccc3)NC(=O)C3CCCN3C(=O)C(C)(C)NC(=O)C3CCCN3C(=O)C(C)(C)NC(C)=O)c(=O)oc2c1 (stereo partly specified)	active
O=C(Nc1cccc(C2=NCCN2)c1)c1cccc(C(=O)Nc2cccc(C3=NCCN3)c2)c1	inactive
COc1ccc(C(=O)c2nccc3cc(OC)c(OC)cc23)cc1OC	inactive
CC1(C)C(=O)/C(=C\c2cccnc2)C[C@]2(C)[C@H]3CC[C@@H]4[C@H]5[C@H](C(=O)/C=C/c6cccnc6)CC[C@]5(C(=O)O)CC[C@@]4(C)[C@]3(C)CC[C@@H]12	active

Data request: For this compound, state the assay outcome: CC(C)C1=NOC(=O)C1=Cc1cn(-c2ccccc2)nc1-c1cccc([N+](=O)[O-])c1
Data returned: inactive

Data request: What was the test verdict on COc1cc(C)cc2oc3oc(=O)c(C(=O)c4cc5cc(Br)ccc5o4)cc3c(=O)c12 ?
Data returned: inactive

Data request: Per the assay record, what outcome was assigned to CC(=O)OC[C@]12CC[C@@H](C(=O)CBr)[C@@H]1[C@H]1CC[C@@H]3[C@@]4(C)CCCNC(C)(C)[C@@H]4CC[C@@]3(C)[C@]1(C)CC2 ?
Data returned: active

Data request: // return assay outcome for Oc1ccc(N=Nc2nccs2)c(O)c1
Data returned: inactive

Data request: Called result for O=C1CC(c2ccccc2)Cc2nc3ccc(Br)cc3cc21 (stereo unspecified)
Data returned: inactive

Data request: Could you please tell me the result logged for CC1(C)CC[C@]2(C(=O)O)CC[C@]3(C)C(=CC[C@@H]4[C@@]5(C)C/C(=C/c6ccco6)C(=O)C(C)(C)[C@@H]5CC[C@]43C)[C@@H]2C1 in this assay?
Data returned: active

Data request: Per the records of this test, what outcome belongs to COc1ccc(-c2nc3ccccn3c2/C=C/C(=O)c2cc(OC)c(OC)c(OC)c2)cc1OC ?
Data returned: inactive

Data request: Test call, this compound: CC1=CCc2ccccc21
Data returned: inactive

Data request: Tell me the assay call for Cc1ncc(C(=O)Nc2ccc(CN3CCN(C)CC3)c(C(F)(F)F)c2)cc1C#Cc1c(N)ncc2ccc(C#N)cc12 please.
Data returned: inactive

Data request: Entry Cn1cc(-c2noc(-c3cn(C)c4ncc(F)cc34)n2)c2cc(Br)ccc21 : call = ?
Data returned: inactive
